- assayed system: cardiac troponin T (recombinant human) (human)
- measurement notes: SPR, 37C
observation type: pKd
// returns pKd (minus log10 of molar concentration), number only

Please review the entries below; each comes with its answer.
{"columns": ["binder", "pKd"],
 "data": [
  ["Fab combination 19 (antibody, V domains shown) VH: EVQLQQSGPELVKPGASVKMSCKASGYTFTDYYMKWVKQSHGKSLEWIGDINPNNGETFYNQKFKDKATLTVDKSSSTAYMQLNSLTSEDSAVYYCATRVFDFWGQGTTLTVSS VL: DIVLTQSPASLAVSLGQRATISCKASQSVDYDGTSYMNWFQQKAGQPPKRLIYAASNLESGIPARFSGRGSGTDFALNIHPVEEEDAATYYCQQSNEDPYTFGGGTKLEIKR", 9.34],
  ["Fab combination 7 (antibody, V domains shown) VH: EVQLQQSGPELVKPGASVKMSCKASGYTFTDYFMKWVKQSHGKSLEWIGDINPNNGETFYNQKFKDKATLTVDKSSSTAYMQLNSLTSEDSAVYYCATRVFDFWGQGTTLTVSS VL: DIVLTQSPASLAVSLGQRATISCKASQSVDYDGTSYMNWFQQKAGQPPKRLIYAASNLESGIPARFSGRGSGTDFALNIHPVEEEDAATYYCQQSNEDPYTFGGGTKLEIKR", 9.35],
  ["Fab combination 21 (antibody, V domains shown) VH: EVQLQQSGPELVKPGASVKMSCKASGYTFTDYYMKWVKQSHGKSLEWIGDINPNNGETWYNQKFKDKATLTVDKSSSTAYMQLNSLTSEDSAVYYCATRYFDYWGQGTTLTVSS VL: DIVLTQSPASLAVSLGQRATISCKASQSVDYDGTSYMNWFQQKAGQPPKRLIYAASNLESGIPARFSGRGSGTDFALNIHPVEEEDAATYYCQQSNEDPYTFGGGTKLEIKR", 8.80],
  ["Fab combination 1 (antibody, V domains shown) VH: EVQLQQSGPELVKPGASVKMSCKASGYTFTDYFMKWVKQSHGKSLEWIGDINPNNGETFYNQKFKDKATLTVDKSSSTAYMQLNSLTSEDSAVYYCATRVFDYWGQGTTLTVSS VL: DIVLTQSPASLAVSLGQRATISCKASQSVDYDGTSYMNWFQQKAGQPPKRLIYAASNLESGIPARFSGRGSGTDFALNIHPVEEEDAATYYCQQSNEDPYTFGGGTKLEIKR", 9.21]
]}

Item under review: Fab combination 15 (antibody, V domains shown) VH: EVQLQQSGPELVKPGASVKMSCKASGYTFTDYIMKWVKQSHGKSLEWIGDINPNNGETFYNQKFKDKATLTVDKSSSTAYMQLNSLTSEDSAVYYCATRVFDFWGQGTTLTVSS VL: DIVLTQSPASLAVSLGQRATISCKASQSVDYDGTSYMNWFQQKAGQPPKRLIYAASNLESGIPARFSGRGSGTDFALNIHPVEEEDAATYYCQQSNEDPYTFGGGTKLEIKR . Reported pKd?
8.96
